subject_of_test: human ether-à-go-go-related gene (hERG) potassium channel (human, UniProt Q12809)
Sequence (Q12809 whole entry, looked up): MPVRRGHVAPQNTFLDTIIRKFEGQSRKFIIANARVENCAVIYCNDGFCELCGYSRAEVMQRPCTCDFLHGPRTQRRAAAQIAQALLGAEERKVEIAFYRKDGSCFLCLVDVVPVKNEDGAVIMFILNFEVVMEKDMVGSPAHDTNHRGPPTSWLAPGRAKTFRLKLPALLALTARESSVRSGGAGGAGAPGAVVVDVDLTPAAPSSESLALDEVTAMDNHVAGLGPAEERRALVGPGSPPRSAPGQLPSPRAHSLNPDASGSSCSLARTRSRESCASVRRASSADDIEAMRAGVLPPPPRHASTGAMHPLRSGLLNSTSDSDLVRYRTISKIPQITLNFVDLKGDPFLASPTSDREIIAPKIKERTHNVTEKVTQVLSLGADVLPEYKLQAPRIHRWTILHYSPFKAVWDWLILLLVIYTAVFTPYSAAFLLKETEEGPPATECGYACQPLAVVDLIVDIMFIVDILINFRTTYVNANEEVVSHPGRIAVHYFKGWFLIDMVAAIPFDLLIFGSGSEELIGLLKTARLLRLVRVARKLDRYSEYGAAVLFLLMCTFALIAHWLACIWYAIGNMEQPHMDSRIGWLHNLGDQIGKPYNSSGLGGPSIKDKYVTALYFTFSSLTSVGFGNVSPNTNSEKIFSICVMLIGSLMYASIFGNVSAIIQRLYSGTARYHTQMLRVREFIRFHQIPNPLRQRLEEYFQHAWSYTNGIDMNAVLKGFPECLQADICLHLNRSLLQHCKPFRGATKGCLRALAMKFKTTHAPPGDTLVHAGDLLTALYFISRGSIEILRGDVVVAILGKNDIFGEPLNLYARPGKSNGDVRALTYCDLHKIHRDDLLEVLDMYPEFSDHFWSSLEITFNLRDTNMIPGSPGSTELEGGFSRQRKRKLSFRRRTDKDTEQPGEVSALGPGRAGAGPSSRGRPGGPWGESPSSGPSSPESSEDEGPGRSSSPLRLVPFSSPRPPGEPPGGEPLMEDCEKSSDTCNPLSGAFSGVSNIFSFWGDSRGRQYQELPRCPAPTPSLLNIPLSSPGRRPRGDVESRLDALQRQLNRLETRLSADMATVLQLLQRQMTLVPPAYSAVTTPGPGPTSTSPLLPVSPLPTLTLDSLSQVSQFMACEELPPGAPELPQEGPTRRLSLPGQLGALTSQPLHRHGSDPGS
test_description: primary screen, population patch clamp on CHO cells stably expressing hERG; higher = less effect of the substance;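 also: peak tail current of the secondary pulse compared with the same well before compound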
Hit rate of the full screen: of about 310,000 compounds, about 14,000 (4.5%) showed an effect of 50% or more. Effects have a minus sign here. For the sample, strong results were picked, then their nearest neighbours and some compounds at random.
Task for the reader: assign each of the following compounds its reported hERG current change (%, negative = inhibition) at 10uM.
Please reply with the bare figure in % and do not write the unit itself.

Hey, human ether-à-go-go-related gene (hERG) potassium channel (human, UniProt Q12809) data for `Cc1cccc(N(CC(=O)NCCC2=CCCCC2)S(C)(=O)=O)c1C` : hERG current change (%, negative = inhibition) at 10uM came out at -22.8

Reported human ether-à-go-go-related gene (hERG) potassium channel (human, UniProt Q12809) hERG current change (%, negative = inhibition) at 10uM for item `Cc1ccc(NC(=O)c2cc3ccccc3o2)cc1Cl` was 19.7

Short answer on human ether-à-go-go-related gene (hERG) potassium channel (human, UniProt Q12809) for `O=C(c1ccco1)n1nc(-c2ccccc2)nc1SCc1ccccc1` , hERG current change (%, negative = inhibition) at 10uM: 3.93

Short answer on human ether-à-go-go-related gene (hERG) potassium channel (human, UniProt Q12809) for `Cc1cc2ncn(/N=C/c3ccc([N+](=O)[O-])o3)c2cc1C` , hERG current change (%, negative = inhibition) at 10uM: -0.858

hERG current change (%, negative = inhibition) at 10uM on human ether-à-go-go-related gene (hERG) potassium channel (human, UniProt Q12809) for CCOc1ccc(N2CC(C(=O)Nc3cc(Cl)ccc3-n3cncn3)CC2=O)cc1 (stereo not shown) is -64.2

Form field hERG current change (%, negative = inhibition) at 10uM for item `CCn1c(=O)[nH]c(=O)c2c(N)c(C(=O)c3ccccc3OC)sc21` on human ether-à-go-go-related gene (hERG) potassium channel (human, UniProt Q12809): -15.2

# CC(CCc1ccccc1)NC(=O)CCC1CCCC1 (stereo not shown) with human ether-à-go-go-related gene (hERG) potassium channel (human, UniProt Q12809): hERG current change (%, negative = inhibition) at 10uM is -24.5

The compound `COc1ccc(CN2CC[C@H]3C=CC[C@@H](C(=O)N4CCOCC4)[C@H]3C2=O)cc1OC` , when measured on human ether-à-go-go-related gene (hERG) potassium channel (human, UniProt Q12809), yielded hERG current change (%, negative = inhibition) at 10uM of 7.75

Measured on human ether-à-go-go-related gene (hERG) potassium channel (human, UniProt Q12809), `COc1ccc(CN(C)C(=O)c2ccc(NS(=O)(=O)c3ccc(F)cc3)cc2)c(OC)c1OC` has a documented hERG current change (%, negative = inhibition) at 10uM of -55.6

Value sought: hERG current change (%, negative = inhibition) at 10uM, system human ether-à-go-go-related gene (hERG) potassium channel (human, UniProt Q12809), item CCC(C)NC(=O)CSc1c2c(nc3ccccc13)CCCC2 (stereo not shown) . Result: -7.98

hERG current change (%, negative = inhibition) at 10uM value, target or system human ether-à-go-go-related gene (hERG) potassium channel (human, UniProt Q12809), for `Cc1c(NS(=O)(=O)c2ccc(C(=O)NCc3ccc(F)cc3)cc2)c(=O)n(-c2ccccc2)n1C` : -15

// compound `O=C(Nc1ccc(N2CCN(C(=O)c3ccco3)CC2)c(Cl)c1)c1cc2ccccc2o1` , assay human ether-à-go-go-related gene (hERG) potassium channel (human, UniProt Q12809), hERG current change (%, negative = inhibition) at 10uM value: -67.9

Item `Cc1ccc2cccc(Oc3ncnc4scc(-c5ccc(Cl)cc5)c34)c2n1` was tested on human ether-à-go-go-related gene (hERG) potassium channel (human, UniProt Q12809); the reported hERG current change (%, negative = inhibition) at 10uM is 3.87

Sample CN(C)C(=S)NC1(C)CCS(=O)(=O)C1 (stereo not shown) , system: human ether-à-go-go-related gene (hERG) potassium channel (human, UniProt Q12809). Its hERG current change (%, negative = inhibition) at 10uM is 6.89

The measured hERG current change (%, negative = inhibition) at 10uM that `CCOC(=O)CN(C(=O)COc1nc(-c2ccccc2)cc(C)c1C#N)c1ccc(F)cc1` showed for human ether-à-go-go-related gene (hERG) potassium channel (human, UniProt Q12809) is 1.18

Response field hERG current change (%, negative = inhibition) at 10uM (human ether-à-go-go-related gene (hERG) potassium channel (human, UniProt Q12809)) for item Cc1ccc(OCCNC(=O)C2CC(=O)N(c3ccc(C)cc3)C2)cc1 (stereo not shown) : -4.5

Form field hERG current change (%, negative = inhibition) at 10uM for item `CC(=O)NS(=O)(=O)c1ccccc1` on human ether-à-go-go-related gene (hERG) potassium channel (human, UniProt Q12809): 9.31

Value sought: hERG current change (%, negative = inhibition) at 10uM, system human ether-à-go-go-related gene (hERG) potassium channel (human, UniProt Q12809), item CC(=O)NCC(=O)OC(C)C(=O)Nc1ccc(C(C)=O)cc1 (stereo not shown) . Result: -10.4

Value sought: hERG current change (%, negative = inhibition) at 10uM, system human ether-à-go-go-related gene (hERG) potassium channel (human, UniProt Q12809), item `CC(=O)Nc1ccc(Nc2ncnc3ccccc23)cc1` . Result: 10.9

Readout hERG current change (%, negative = inhibition) at 10uM for `Cc1ccc(/C=N/n2c(C)nc3ccccc3c2=O)o1` , test system human ether-à-go-go-related gene (hERG) potassium channel (human, UniProt Q12809), was 10.9

Let me check: `CCC(=O)N1CCN(c2ccc(NC(=O)c3cc4ccccc4o3)cc2)CC1` , system human ether-à-go-go-related gene (hERG) potassium channel (human, UniProt Q12809), measured hERG current change (%, negative = inhibition) at 10uM is -23.3

Bench note, human ether-à-go-go-related gene (hERG) potassium channel (human, UniProt Q12809): CCOc1ccc(N2CC(C(=O)Nc3ccc(F)cc3F)CC2=O)cc1 (stereo not shown) , hERG current change (%, negative = inhibition) at 10uM reads -3.45

The measured hERG current change (%, negative = inhibition) at 10uM that `CC(C)C(=O)N1CCN(c2ccc(NC(=O)c3cccs3)cc2Cl)CC1` showed for human ether-à-go-go-related gene (hERG) potassium channel (human, UniProt Q12809) is -14.7

The observed hERG current change (%, negative = inhibition) at 10uM for `Cc1cccc(N2CCN(C(=O)COc3ccc4ccc(=O)oc4c3)CC2)c1C` when tested with human ether-à-go-go-related gene (hERG) potassium channel (human, UniProt Q12809) stands at 5.66

hERG current change (%, negative = inhibition) at 10uM for human ether-à-go-go-related gene (hERG) potassium channel (human, UniProt Q12809) with input CCOc1ccc(N2CC(C(=O)Nc3nnc(Cc4ccccc4)s3)CC2=O)cc1 (stereo not shown) equals 4.73

So the reported hERG current change (%, negative = inhibition) at 10uM for CCOc1ccccc1N1CC(C(=O)Nc2cc(Cl)ccc2-n2cncn2)CC1=O (stereo not shown) , on human ether-à-go-go-related gene (hERG) potassium channel (human, UniProt Q12809), turned out to be -10.3

Here CCOCCc1nnc(NC(=O)C2CC(=O)N(c3ccc(OCC)cc3)C2)s1 (stereo not shown) was tested on human ether-à-go-go-related gene (hERG) potassium channel (human, UniProt Q12809), and its hERG current change (%, negative = inhibition) at 10uM came to -18.1

Item: `COc1cccc(CN(C)C(=O)c2ccc(NS(=O)(=O)c3ccc(F)cc3)cc2)c1OC` | System: human ether-à-go-go-related gene (hERG) potassium channel (human, UniProt Q12809) | hERG current change (%, negative = inhibition) at 10uM: -9.34

The reported hERG current change (%, negative = inhibition) at 10uM value, human ether-à-go-go-related gene (hERG) potassium channel (human, UniProt Q12809), for `Cc1nc2ccccc2n1/N=C/c1ccc([N+](=O)[O-])o1` reads -58.9

Log: human ether-à-go-go-related gene (hERG) potassium channel (human, UniProt Q12809), compound CC1=Nc2ccccc2N=C(NC(=O)CSC(=S)N2CCN(C)CC2)C1c1ccccc1 (stereo not shown) , hERG current change (%, negative = inhibition) at 10uM = -24.2

With human ether-à-go-go-related gene (hERG) potassium channel (human, UniProt Q12809) as the test system, `O=C(Nc1ccc(N2CCN(C(=O)c3ccco3)CC2)c(Cl)c1)c1c(F)c(F)c(F)c(F)c1F` showed hERG current change (%, negative = inhibition) at 10uM of -32.1

Given the compound `O=C(Nc1nccs1)c1ccc2c(c1)C(=O)N(Cc1cccnc1)C2=O` and test system human ether-à-go-go-related gene (hERG) potassium channel (human, UniProt Q12809), the measured hERG current change (%, negative = inhibition) at 10uM is -4.17

human ether-à-go-go-related gene (hERG) potassium channel (human, UniProt Q12809) data for `Cc1ccccc1OCCCC(=O)Nc1ccc2c(c1)OCO2` ; its hERG current change (%, negative = inhibition) at 10uM: 5.46

`Cc1ccccc1C(=O)N1CCN(c2ccc(NC(=O)c3ccco3)cc2Cl)CC1` on human ether-à-go-go-related gene (hERG) potassium channel (human, UniProt Q12809) gives hERG current change (%, negative = inhibition) at 10uM = -43.2

For `CCOC(=O)c1ccc(NC(=S)NCCc2ccccc2)cc1` on human ether-à-go-go-related gene (hERG) potassium channel (human, UniProt Q12809), measured hERG current change (%, negative = inhibition) at 10uM was 4.14

Result for `O=C1c2ccccc2C(=O)N1Cc1ccccc1F` , tested on human ether-à-go-go-related gene (hERG) potassium channel (human, UniProt Q12809), hERG current change (%, negative = inhibition) at 10uM: 13

I looked up `Cc1ccc(C(=O)c2sc3c(c2N)c(=O)[nH]c(=O)n3CCc2ccccc2)cc1` and its hERG current change (%, negative = inhibition) at 10uM for human ether-à-go-go-related gene (hERG) potassium channel (human, UniProt Q12809) was 12.2

Result for `CN(C)c1ccc(/C=C2\SC(N3CCCCC3)=NC2=O)cc1` , tested on human ether-à-go-go-related gene (hERG) potassium channel (human, UniProt Q12809), hERG current change (%, negative = inhibition) at 10uM: -21.8

Record O=C(NCCOc1ccc(Cl)cc1)C1CC(=O)N(c2ccc3c(c2)OCCO3)C1 (stereo not shown) has human ether-à-go-go-related gene (hERG) potassium channel (human, UniProt Q12809) hERG current change (%, negative = inhibition) at 10uM equal to -27.9

human ether-à-go-go-related gene (hERG) potassium channel (human, UniProt Q12809) assay, compound O=C(CNC(=O)c1ccco1)OC(C(=O)c1ccccc1)c1ccccc1 (stereo not shown) , recorded hERG current change (%, negative = inhibition) at 10uM = 0.438

Entry source: paper PMC4336329
